These measurements were taken from patent US10357481B2.

Biological target: human PDE2A1 (Homo sapiens)
Construct: GST; purchased BPS Bioscience (San Diego, Calif.) 60020; host or cells: insect cells
Sequence (O00408 1-920 isoform O00408-2): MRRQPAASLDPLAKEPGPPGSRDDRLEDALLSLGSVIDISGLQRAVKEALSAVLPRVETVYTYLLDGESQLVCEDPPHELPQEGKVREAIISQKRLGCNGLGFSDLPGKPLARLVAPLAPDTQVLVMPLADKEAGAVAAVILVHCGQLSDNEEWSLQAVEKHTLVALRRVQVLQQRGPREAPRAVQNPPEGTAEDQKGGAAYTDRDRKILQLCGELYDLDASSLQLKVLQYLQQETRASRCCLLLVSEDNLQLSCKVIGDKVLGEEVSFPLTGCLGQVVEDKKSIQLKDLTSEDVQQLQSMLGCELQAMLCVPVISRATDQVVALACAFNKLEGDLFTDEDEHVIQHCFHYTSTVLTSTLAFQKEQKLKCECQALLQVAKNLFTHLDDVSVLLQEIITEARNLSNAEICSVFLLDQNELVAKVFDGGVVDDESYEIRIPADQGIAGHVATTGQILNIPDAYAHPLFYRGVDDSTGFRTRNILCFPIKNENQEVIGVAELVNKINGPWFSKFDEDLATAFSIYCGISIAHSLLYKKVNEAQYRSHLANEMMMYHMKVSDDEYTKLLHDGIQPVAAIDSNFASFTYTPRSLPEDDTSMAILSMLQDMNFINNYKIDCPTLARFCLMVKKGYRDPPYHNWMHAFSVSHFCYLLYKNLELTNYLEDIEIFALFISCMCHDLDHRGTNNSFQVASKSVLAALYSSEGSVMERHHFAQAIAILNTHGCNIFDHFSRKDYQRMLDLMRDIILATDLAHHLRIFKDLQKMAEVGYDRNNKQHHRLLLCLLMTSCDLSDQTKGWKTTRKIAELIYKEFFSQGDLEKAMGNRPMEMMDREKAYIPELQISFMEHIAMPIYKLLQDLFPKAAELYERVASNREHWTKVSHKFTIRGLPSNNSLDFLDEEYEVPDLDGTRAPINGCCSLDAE
Experiment: IMAP FP PDE selectivity panel, human PDE2A1
Format: biochemical
Conditions: Lab B; read-out: Human PDE2 Ki (nM) Lab B
outcome measure: Ki (nM)

Past entries and their recorded results:
Ask: Report Ki under test system human PDE2A1 (Homo sapiens) for `Fc1cc(C2(Nc3cncc4ncnn34)CC2)ccc1C(F)(F)F` .
Result: 22

Ask: State Ki on human PDE2A1 (Homo sapiens). Entry: CCC(O)(CC)C(Nc1cc(C)nc2ncnn12)c1ccc(C(F)(F)F)c(F)c1 (single isomer, unassigned) [Example 216]
Result: 134

a. Cc1cc(N(C)C2(c3ccc(C(F)(F)F)c(F)c3)CC2)n2ncnc2n1
b. CC(C)(O)C(Nc1cc(C(F)F)nc2ncnn12)c1ccc(OC(F)(F)F)c(F)c1 (single isomer, unassigned) [Example 187]
Ask: Compare reported Ki values for a and b . Which is lower? // caller expects the label of the chosen entry
Result: b
(b: 5.5 nM, a: 46 nM)
